Assay: yeast display, Sf9 membrane polyspecificity reagent, FACS + sequencing; frameworks hold sequencing errors
parameter: polyreactivity (PSR sort gate)

chain_sequence	polyreactivity (PSR sort gate)
QVQLVESGGGLVQAGGSLRFSCAASGTFVPYAMGWYRQAPGKEMELVARITWRGGSTYYADSVKGRFTISRDNAKNTVDLQLNSLKPEDTAVYYCATVSDNRYYYWGQGTQVTVSS	low polyreactivity
QVQFVESGGGLVQAGGSLRLSCAASGSTFPYYAMGWYRQAPGKERELVAGINWRGSSTYYADSVKGRFTISRDNAKNTVYLQMNSLKPEDTAVYYCAARDYSYPQWYYYWGQGTQVTVSS	high polyreactivity
QVQLVESGGGLDQAGGSLRLICAASGRTFYYAMGWYRQAPGKERYADSVKGRFTISRDNAKNTVYLQMNSLKPEDTAVYYCAAKVPEPPSLDESDYWGQGTQVTVSS	low polyreactivity
QVQLVESGGGLDQAGGSLRLICAASGRTFATNTMVWYRQAPGKERELVAAITFSGGSTYYADSVKGRFTISRDNEKNSVYLQMNSLKPEETAVYYCNVRSPYYSYRYRYGYWGQGTQVTVSS	high polyreactivity

Moving on to the next sequence.
Requested field: polyreactivity (PSR sort gate). Item: QVQLVESGGGLVQAGGSLRLSCAASGNIFGRYAMGWYRQAPGKERELVAAISSGDITYYADSVKGRFTISRDNAKNTVYLQMNSLKPEDTAVYYCAADSYWSVVYIKYDYWGQGTQVTVSS
low polyreactivity

* * *

Assay: yeast display, Sf9 membrane polyspecificity reagent, FACS + sequencing; frameworks hold sequencing errors
parameter: polyreactivity (PSR sort gate)

// solved cases for polyreactivity (PSR sort gate) follow
chain_sequence	polyreactivity (PSR sort gate)
QVQLVESGGGLVQAGGSLRLSCAASGRTFSGYAMGWYRQAPGKERELVAAIRLSGGSTYYADSVKGRFTISRDNAKNTVYLQMNSLKPEVTAVYYCARYHGFGYDYWGQGTQGTVSS	low polyreactivity
QVQLVESGGGLVQAGGSLRLSCAASGSIFAKNAMGWYRQAPGKERELVAGIDFSGGSTYYADSVKGRFTLSRDNAKNTVYLQMNSLKPEDTAVYYCAADWAYKYELDYWGQGTQLTVSS	low polyreactivity
QVQLVESGGGLVQAGGSLRLSCAASGSIFSAYAMGWYRQAPGKERELVAAISYGGGSTYYADSVKGRFTISRDNAKNTVYLQMNSLKAEDTAVYYCAAASSGEYGYWGQGTQVTVSS	low polyreactivity
QVQLVESGGGLVQAGGSLRLSCAASGFTFIKYAMGWYRQAPGKEREFDATISWNGGNTYYADSVKGRFTISRDKAKNTVYLQMNSLKPEDTAVYYCAARVKYRTRGGTVVSYDYWGQGTQVTVSS	high polyreactivity
QVQLVESGGGLVQAGGSLRLSCAASGSTFPYYAMGWYRQAPGKERELVAAISRRGTSTYYADSVKGRFTISRDNAKNTVYLQMNSLTPEDTAVYYCAAVGGAFPNRYYWGQGTQVTVSS	high polyreactivity
QVQLVESGGGLVQAGGSLRLSCAASGSIFWPYAMGWYRQAPGKEREFVAAITWSGGSTYYADSVKGRFTISRDNAKNTVYLQMNSLKPEDTAVYYCAAEITWYYHDFGYWGQGTQVTVSS	high polyreactivity

For the 5 sequences below, give their polyreactivity (PSR sort gate) values.
1. QVQLVESGGGLVQAGGSLRLSCAASGITFVKNVMGWYRQAPGKERELVAAISTIGARTYYADSVKGRFTISRDNAKNTVYLQMNSLKPEDTAVYYCAAENYPRRPRYDYWGQGTQVTVSS
2. QVQLVESGRGLVQAGGSLRLISAASGSIFVHNTMGWYSQAPGKDRELVAAITYSGGSTNYADSVKGRFTISRDNAKNTVYLQMNSLKPEDTAVYYCATRAISQFHSLGYYYWGQGTEVTVSS
3. QVQLVESGGGLVQAGGSLRLSCAASGSIFWSNARGWYRQAPGKERELVATIDDDVGSTYYADSVKGRFTISRDNAKNTVYLQMNSLKPEDTAVYYCAADSVYYVMPYEYWGQGTQVTVSS
4. QVQLVESGGGLVQAGGSLRLSCAASGSTFGKYAMGWYRQAPGKERELVASISRSGASTYYADSVKGRFTISRDNAKNTVYLQMNSLKPEDTAVYYCNKARNPEGYWRYDYWGQGTQVTVSS
5. QVQLVESGGGLVQAGGSLRLSCAASGRIFRVYAMGWYRQAPGKERELVAAITRGGSTYYADSVKGRFTISRDNAKNTVYLQMNSLKPEDTAVYYCAARTWHRYDYWGQGTQVTVSS

1: high polyreactivity; 2: low polyreactivity; 3: low polyreactivity; 4: high polyreactivity; 5: high polyreactivity

* * *

Test: yeast display, Sf9 membrane polyspecificity reagent, FACS + sequencing; frameworks hold sequencing errors
parameter: polyreactivity (PSR sort gate)

chain_sequence	polyreactivity (PSR sort gate)
QEQLQERGGGLVQAGGSLRLSCAASGNISVTGFMGWYRQAPGKERELVASIGIGGTTYYADSVKGRFSMSRDNAKNTVYLKMNRLKPEDTAVYYCAVRWYDHVSRRGIGYYWGKGTQVTVSS	low polyreactivity
QVQLEESGGGLVQAGGSLRLSCVASGSTFRFYAMGWYRPAPGNERQLVAAITWRGTSTYYADSVKGRFTISRDNAKNSVYLQMNSLKPEDTAVYYCNAAGYWPATGDYWGQGTQVTVSS	high polyreactivity
QVQLVESGVGLVQPGGILRLSCAASGIIFTQYAMGWNIQAPGKESELVAAMSGSGGSTYYADSVKGRFTISRDNAKNTVYLQMNSLKPEDTAVFYCAAGGVRGPGVESRMFYLGQGTQVTVSS	high polyreactivity
HVQLVESGGGLFQAGGSLRLCCAASGSISGLYAMGWYRQAPGKERELVAAITLRDGTTSYADSVKGRFTISRDNAKITVYLQMNSLKPEDTDVYYCAAVDRDSKCSVPTLDHWGQGTQVTVSS	low polyreactivity
QDQHVESGGGLVQAGGSLRLSCAASGHTFRLYTMGWYRQAPGKEREFVAAIRRRTGSTYYADSVKGRFTISRDNAQNTVYLQRNSMKAEVTAVYYCNAVGDARYNYRGQGTQVTVSS	high polyreactivity
QDQLVESGGGLVQAGGSLRLSCAASGLTFYQYDMGWYRQAPGKERELVAAISRSGGRTYYADSVKGRFTISRDIAMITVYLQMNSLKPEDTAVYYCARPDKRLEYSENYYWGQGSQVTVSS	high polyreactivity
QVQLVESGGGLVQAGGSLRLSCAASGSTFSVYAMGWYRQAPGKERELVADNTRGGSTYADSVKGRFTISRDNAKNTVYLQMNSLKPEDTAVYYCAREEVTPYPLYWSTREYDYWGQGTQVTVSS	low polyreactivity
QVQLVESGGGLVQAGGILRLSCAASGRIFHWYAMGWYRQAPGKERELVDAITDGYSTYYADSVNGRYKISRDNAKNTVYLQMNSLKPEETAVYYCAADVGYSPYVFGVTRYYKYDYWGQGTQVTVSS	low polyreactivity
QVQLVESGGGLVQAGGSLRLSCAASGFIFTIYAMGWYRQAPGKERELVAAITWNGGRTYYADSVKGRFTISRDNAKNTVYLQMNSLKPEDTAVYYCAARYGRAYDYWGQGTQVTVSS	high polyreactivity
QVQLVESGGGLVQAGGSLRLSCAASGSIFGANAMGWYRQAPGTVRELVAAISRRGGSTYYADSVKGRFTISRDNAKNTVHLQMNSLKPEDTAVYYCNTYPQSLGVKYGYWGQGTQVTVSS	high polyreactivity

Moving on to the next sequence.
Requested field: polyreactivity (PSR sort gate). Item: QVQLVESGGGLVQAGGSLRLSSAASGSTFAEYAMGWYRQAPGKERELVAAIRWSGGSTSYADSVKGRFTISRDNAKNTVYLQMNSLKPEDTAVYYCAAERFWYDGEVKLYVLSYYWGQGTQVTVSS
low polyreactivity

* * *

Experiment: yeast display, Sf9 membrane polyspecificity reagent, FACS + sequencing; frameworks hold sequencing errors
parameter: polyreactivity (PSR sort gate)

// solved cases for polyreactivity (PSR sort gate) follow
chain_sequence	parameter	reported_measurement
QVQLVESGGGLVQAGGSLRLSCAASGSTFGYNAMGWYRQAPGKERELVAAISYSGGSTSYADSVKGRFTISRDNAKNTVYLQMNSLKPEDTAVYYCAADEGTGQASLSSNLYDYWGQGTQVTVSS	polyreactivity (PSR sort gate)	low polyreactivity
QVQLVESGGGLVQAGGSLRLSCAASGSIFEPYAMGWYRQAPGKERELVAAISWDVGRTYYADSVKGRFTISRDNAKNTVYLQMNSLKPEDTAVYYCAAEIAIDGYYKSWYDYWGQGTQVTVSS	polyreactivity (PSR sort gate)	high polyreactivity
QVQLVESGGGLVQAGGSLRLSCAASGIIFRSNAMGWYRQAAGNERELVAAISQRGGSTYYADSVKGRFTISRDNAKNTVYLQMNSLKPEDTAVYYCNALQRRYGGGGNDYWGQGTQVTVSS	polyreactivity (PSR sort gate)	high polyreactivity
QVQLVESGGGLVQAGGSLRLSCAASGIIFGYYAMGWYRQAPGKERELVAAISRSGGRTYYADSVKGRFTISRDNAKNTVYLQMNSLKPEDTAVYYCATVTNSKRGFDYWGQGTQVTVLS	polyreactivity (PSR sort gate)	high polyreactivity
QVQLQESGRRPGAAGGSPRMSCAASGNIFWVAVMGRYRQAPGKERELVASIGFGCTTYYADSVKCRFTISRDNAKNTVYRQMISLKPEDTAVYYCAAPHYDWGELDYWGQGTQVPVSS	polyreactivity (PSR sort gate)	low polyreactivity

For the 3 sequences below, give their polyreactivity (PSR sort gate) values.
1. QVQLVESGGGLVQAGGSLRLSCAASGITFAYYAMGWYRQAPGTEREWVAAISRSGGGTYYADSVKGRFTISRDNAKNTVYLQMNTLIPEDTAVYYCNKDYPYYNSGPWAYKFDYCGQGTQVTVSS
2. QVQLVESGGGLVQAGGSLRLSCAASGRTFRKYAMGWYRQAPGKERELVAAISWSGGSTYYANSVKGRFTISRDYAKNTVYLQMNILKPEDTAVYYCAAVPVHTGSLYWGFTTGYDYWGQGTQVTVSS
3. QVQLVESGGGLVQAGGSLRLSCAASGFIFRWYAMGWYRQAPGKERELVAGISASGGSTYYADSVKGRFTISRDNAKNTVYLQMNSLKPEDTAVYYCAAYRRNSRWELDYWGQGTQVTVSS

["high polyreactivity", "low polyreactivity", "high polyreactivity"]

For the 8 sequences below, give their polyreactivity (PSR sort gate) values.
1. QVQLVESGGALVQAGGSLRLSCAASGIIFYDYAMGWYRPAPGKERELVAAITWTGSSTYYADSVKGRFTISRDNAKITVYRQMNCLKQEDTAVSYCAADYWEYSPYEDLTYDYWGQGTQVTVSS
2. QVQLVESGGGLVQAGGSLRLSCAASGSIFSLNAMGWYRQAPGKERELVAAINSGGTSTYYADSVKGRFTMSRDNAKNTVYLHMKSLKPEDTAVYYCAKRQRDYSSVFDVDYWGQGTQVTVSS
3. QVQLVESGGGLVQAGGSLRLSCAASGRIFYYYAMGWYRQAPGKERELVAAITRGDSTTYADSVKGRFTISRDNAKNTVYLKMNILKPEDTAVYYCNAGRGTFKRYTALQYWGQGTQVTVSS
4. QVQLVESGGGLVQAGGSLRLSCAASGIIFGAYAMGLYRQAPGQERVFVAAISRSGSRTYYADSVKGRFTISRDTAKNTVYLQMNSLKPEDTAVYYCAAESPVLYYWGQGTQVTVSS
5. QVQLVESGGGLVQAGGSLRLSCAASGFIFAYYAMGWYRQAPGKERELVAAISSRGGTYYADSVKGRFTISRDNAKNTVYFQMNSLKPEDTAVYYCAAASYTWVSRGYEYWGQGTQVTVSS
6. QFQLVESGGGLVQAGGSLRLSCAASGFIFKRYTMGWYRQAPGKERELVAAISFSGGSTYYADSVKGRFTISRDNAKNTVYLQMNSLKPEDTAVYYCAKVYRVVPATQKEYGYWGQGTQVTVSS
7. QVQLVESGGGLDQAGGSLRLSCAASGRIFGRYAMGWYRQAPGKERELVASISRGGSTNYADSVKGRFTISRDNAKNTVYLQMNSLKPEDTAVYYCAKSGGVGGEDRVGSWGQGTQVTVSS
8. QVQLVESGGGLVQAGGSLRLSCAASGFTCYIYAMGWYRQAPGKERELVAGITSGGTNYADSVKGRFTISRDNAKNTVYLQINSLKPEDTAVYYCATDYYDDVTIGYDYWGQGTQVTFSS

["high polyreactivity", "low polyreactivity", "low polyreactivity", "high polyreactivity", "high polyreactivity", "high polyreactivity", "low polyreactivity", "low polyreactivity"]

For the 5 sequences below, give their polyreactivity (PSR sort gate) values.
1. QVQLVESRGGIVQAGGSLRLSSAASGSTFAYNDLGWYRQAPGKERQLVADMRSGGNTNYADSVKGRFTISRDNAKNTVYLQMNSLKPEDTAVYYCATDGYRIDVYHPDYRYDYWGLGTQVTVSS
2. QVQLVESGGGLVQAGGSLRLSCATSGGIFDSYAMVWYRQAPGKERELVASISWSGGSTYYADSVKGRFTISRDNEKNTVYLQMKSLKPEVTAVYYCAADRPYAGRFWKGYHSALYDYWGQGTQVTVSS
3. QVQLVESGGGLVQAGGSLRLSCAASGRIFGLYAMGWYSQAPGKERELVAAISRGGGSTYYSDSVMGRFTISRDNAKNTVYLQMKSLKPEVTAVYYCATGLGYFSRLDYWGQGTQVTVSS
4. QVQLVESGGGLVQAGGSLRLSCAASGSTLYPYDMGWYRPAPGKERELVAAIDSGGSTNYADSVKGRFTISRDNAKNTVYLQMNSLKPEDTAVYYCATEILTSARDTVVYQFYLGYYYWGQGTQVTVSS
5. QVQLVESGGGLVQAGGSLRLSCAASGSTFVHNGMGWYRQAPGIDRELVGAITDGGSTYYADSVKGRFTISRDNAKNTVYLQMNSLKPEDTAVYYCAAGYSRYGYFRGYRYYYWGQGTQVTVSS

low polyreactivity
low polyreactivity
low polyreactivity
low polyreactivity
low polyreactivity
